- Target system: JAK3 (Homo sapiens)
- Construct: full-length constructs were used for small, single domain kinases, and catalytic domain constructs for large multi-domain kinases; T7 phage fusion (most assays) or DNA tag for qPCR (HEK-293-made kinases)
- Sequence (P52333 1-1124): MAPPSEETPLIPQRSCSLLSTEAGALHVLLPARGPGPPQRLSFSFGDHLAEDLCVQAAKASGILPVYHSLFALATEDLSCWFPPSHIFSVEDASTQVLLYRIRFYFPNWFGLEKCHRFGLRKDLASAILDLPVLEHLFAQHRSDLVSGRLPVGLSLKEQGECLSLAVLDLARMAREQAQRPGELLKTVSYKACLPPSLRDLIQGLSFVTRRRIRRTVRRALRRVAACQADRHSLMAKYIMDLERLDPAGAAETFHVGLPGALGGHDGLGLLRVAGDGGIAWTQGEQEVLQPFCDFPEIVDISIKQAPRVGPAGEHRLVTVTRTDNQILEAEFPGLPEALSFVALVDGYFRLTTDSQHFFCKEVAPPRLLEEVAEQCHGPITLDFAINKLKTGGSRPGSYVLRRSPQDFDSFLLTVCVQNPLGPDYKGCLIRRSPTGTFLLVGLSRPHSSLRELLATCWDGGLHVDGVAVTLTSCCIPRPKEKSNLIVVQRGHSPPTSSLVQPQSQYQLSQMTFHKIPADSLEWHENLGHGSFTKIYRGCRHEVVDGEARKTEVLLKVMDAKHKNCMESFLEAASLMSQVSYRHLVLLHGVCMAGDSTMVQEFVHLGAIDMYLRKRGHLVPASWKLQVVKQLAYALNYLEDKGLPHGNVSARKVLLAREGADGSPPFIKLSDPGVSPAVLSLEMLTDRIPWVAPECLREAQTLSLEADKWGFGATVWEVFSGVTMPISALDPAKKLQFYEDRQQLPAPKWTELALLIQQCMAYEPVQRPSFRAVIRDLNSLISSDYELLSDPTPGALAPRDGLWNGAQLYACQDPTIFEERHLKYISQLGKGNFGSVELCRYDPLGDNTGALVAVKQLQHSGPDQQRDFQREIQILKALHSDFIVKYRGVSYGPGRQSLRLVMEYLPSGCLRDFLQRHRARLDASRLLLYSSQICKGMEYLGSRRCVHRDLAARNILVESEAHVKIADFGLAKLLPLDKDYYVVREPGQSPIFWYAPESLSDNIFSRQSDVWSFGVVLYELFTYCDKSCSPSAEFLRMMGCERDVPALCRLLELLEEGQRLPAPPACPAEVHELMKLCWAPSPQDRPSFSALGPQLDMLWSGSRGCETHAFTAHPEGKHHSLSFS
- Test method notes: kinase competition binding assay
- Test settings: Table 1
Metric name: IC50 (nM)
Give the number; nM is assumed, so skip it.

In: Consider the compound COc1cc(-c2cc(=O)c3c(O)cc(O)c(CC=C(C)C)c3o2)ccc1O [FBL-03G, Caflanone] and give its measured IC50.
Out: 5.58

* * *

- Target system: MNK2 (Homo sapiens)
- Construct: T7 phage fusion (most assays) or DNA tag for qPCR (HEK-293-made kinases)
- Sequence (Q9HBH9 whole entry, the tested form may be a part): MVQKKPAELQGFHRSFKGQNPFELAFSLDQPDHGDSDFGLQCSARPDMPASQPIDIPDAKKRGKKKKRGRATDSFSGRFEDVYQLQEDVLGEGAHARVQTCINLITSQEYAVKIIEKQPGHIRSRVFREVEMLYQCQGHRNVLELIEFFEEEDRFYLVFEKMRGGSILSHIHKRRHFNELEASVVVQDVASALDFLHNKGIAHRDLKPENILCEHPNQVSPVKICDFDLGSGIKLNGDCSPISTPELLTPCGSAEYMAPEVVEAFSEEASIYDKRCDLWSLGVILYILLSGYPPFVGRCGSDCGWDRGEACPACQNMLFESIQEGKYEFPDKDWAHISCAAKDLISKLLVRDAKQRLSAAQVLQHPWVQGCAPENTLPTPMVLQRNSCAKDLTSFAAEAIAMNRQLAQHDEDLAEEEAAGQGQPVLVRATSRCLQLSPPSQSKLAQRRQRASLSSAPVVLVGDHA
- Test method notes: kinase competition binding assay
- Test settings: Table 1
Metric name: pIC50
Convention used: pIC50 is expressed as -log10 of the molar concentration.

In: Consider the compound COc1cc(-c2cc(=O)c3c(O)cc(O)c(CC=C(C)C)c3o2)ccc1O [FBL-03G, Caflanone] and give its measured pIC50.
Out: 6.26

* * *

- Target system: PIP5K1A (Homo sapiens, UniProt Q99755)
- Construct: T7 phage fusion (most assays) or DNA tag for qPCR (HEK-293-made kinases)
- Sequence (Q99755 whole entry, the tested form may be a part): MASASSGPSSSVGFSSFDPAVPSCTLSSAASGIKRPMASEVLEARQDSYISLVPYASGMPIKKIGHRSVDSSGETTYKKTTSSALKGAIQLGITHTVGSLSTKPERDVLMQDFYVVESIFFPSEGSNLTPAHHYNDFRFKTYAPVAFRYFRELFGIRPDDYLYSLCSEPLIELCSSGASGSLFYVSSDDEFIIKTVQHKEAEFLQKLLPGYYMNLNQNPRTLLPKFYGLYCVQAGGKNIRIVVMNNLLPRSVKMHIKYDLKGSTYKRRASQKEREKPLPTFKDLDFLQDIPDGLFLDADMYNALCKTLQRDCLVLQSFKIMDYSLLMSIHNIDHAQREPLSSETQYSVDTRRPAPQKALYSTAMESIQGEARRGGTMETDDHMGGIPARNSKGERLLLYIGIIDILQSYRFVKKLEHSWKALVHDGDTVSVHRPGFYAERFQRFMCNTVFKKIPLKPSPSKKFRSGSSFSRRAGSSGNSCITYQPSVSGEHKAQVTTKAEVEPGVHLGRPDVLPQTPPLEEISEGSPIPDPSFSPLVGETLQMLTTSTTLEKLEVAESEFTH
- Test method notes: kinase competition binding assay
- Test settings: Table 1
Metric name: IC50 (nM)
Give the number; nM is assumed, so skip it.

In: Consider the compound COc1cc(-c2cc(=O)c3c(O)cc(O)c(CC=C(C)C)c3o2)ccc1O [FBL-03G, Caflanone] and give its measured IC50.
Out: 320

* * *

- Target system: MEK5 (Homo sapiens)
- Construct: T7 phage fusion (most assays) or DNA tag for qPCR (HEK-293-made kinases)
- Sequence (Q13163 whole entry, the tested form may be a part): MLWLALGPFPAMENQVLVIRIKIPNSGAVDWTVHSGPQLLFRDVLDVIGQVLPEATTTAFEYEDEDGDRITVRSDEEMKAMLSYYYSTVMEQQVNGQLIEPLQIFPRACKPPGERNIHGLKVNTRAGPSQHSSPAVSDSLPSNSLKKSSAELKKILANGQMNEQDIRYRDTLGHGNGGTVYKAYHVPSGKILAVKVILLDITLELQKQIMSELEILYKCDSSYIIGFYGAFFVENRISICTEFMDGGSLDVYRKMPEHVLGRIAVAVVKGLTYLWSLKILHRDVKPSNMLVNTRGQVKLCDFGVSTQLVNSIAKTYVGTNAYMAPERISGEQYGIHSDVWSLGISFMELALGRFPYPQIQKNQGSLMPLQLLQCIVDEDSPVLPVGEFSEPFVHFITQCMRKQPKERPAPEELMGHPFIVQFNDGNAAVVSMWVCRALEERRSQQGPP
- Test method notes: kinase competition binding assay
- Test settings: Table 1
Metric name: pIC50
Convention used: pIC50 is expressed as -log10 of the molar concentration.

In: Consider the molecule COc1cc(-c2cc(=O)c3c(O)cc(O)c(CC=C(C)C)c3o2)ccc1O [FBL-03G, Caflanone] and give its measured pIC50.
Out: 6.72

* * *

- Target system: TXK (Homo sapiens)
- Construct: T7 phage fusion (most assays) or DNA tag for qPCR (HEK-293-made kinases)
- Sequence (P42681 whole entry, the tested form may be a part): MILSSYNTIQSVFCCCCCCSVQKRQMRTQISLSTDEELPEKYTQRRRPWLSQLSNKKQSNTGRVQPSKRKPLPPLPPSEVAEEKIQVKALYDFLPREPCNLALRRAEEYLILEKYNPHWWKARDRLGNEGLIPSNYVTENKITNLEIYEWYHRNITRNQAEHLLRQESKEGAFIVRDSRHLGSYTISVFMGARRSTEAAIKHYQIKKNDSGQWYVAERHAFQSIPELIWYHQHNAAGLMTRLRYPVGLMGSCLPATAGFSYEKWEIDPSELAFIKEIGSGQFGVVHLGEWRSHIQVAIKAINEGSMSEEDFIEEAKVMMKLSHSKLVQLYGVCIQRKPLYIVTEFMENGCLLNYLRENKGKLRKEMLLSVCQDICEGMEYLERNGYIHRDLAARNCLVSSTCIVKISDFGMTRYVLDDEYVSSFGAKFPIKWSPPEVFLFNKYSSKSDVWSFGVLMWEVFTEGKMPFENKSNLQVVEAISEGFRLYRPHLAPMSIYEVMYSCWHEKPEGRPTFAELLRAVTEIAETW
- Test method notes: kinase competition binding assay
- Test settings: Table 1
Metric name: pIC50
Convention used: pIC50 is expressed as -log10 of the molar concentration.

In: Consider the molecule COc1cc(-c2cc(=O)c3c(O)cc(O)c(CC=C(C)C)c3o2)ccc1O [FBL-03G, Caflanone] and give its measured pIC50.
Out: 6.79

* * *

- Tested on: MOLM-14 Acute Myeloid Leukemia cell line
- Test method notes: anticancer cell proliferation assay (WST-1)
- Type: cell-based
- Test settings: Table 4; read-out: IC50 Acute Myeloid Leukemia cell lines MOLM-14
Metric name: pIC50
Convention used: pIC50 is expressed as -log10 of the molar concentration.

In: Consider the molecule COc1ccc(-c2cc(=O)c3c(O)cc(O)cc3o2)cc1O [FBLGS-71] and give its measured pIC50.
Out: 5.43

* * *

- Target system: DRAK2 (Homo sapiens, UniProt O94768)
- Construct: full-length constructs were used for small, single domain kinases, and catalytic domain constructs for large multi-domain kinases; T7 phage fusion (most assays) or DNA tag for qPCR (HEK-293-made kinases)
- Sequence (O94768 whole entry, the tested form may be a part): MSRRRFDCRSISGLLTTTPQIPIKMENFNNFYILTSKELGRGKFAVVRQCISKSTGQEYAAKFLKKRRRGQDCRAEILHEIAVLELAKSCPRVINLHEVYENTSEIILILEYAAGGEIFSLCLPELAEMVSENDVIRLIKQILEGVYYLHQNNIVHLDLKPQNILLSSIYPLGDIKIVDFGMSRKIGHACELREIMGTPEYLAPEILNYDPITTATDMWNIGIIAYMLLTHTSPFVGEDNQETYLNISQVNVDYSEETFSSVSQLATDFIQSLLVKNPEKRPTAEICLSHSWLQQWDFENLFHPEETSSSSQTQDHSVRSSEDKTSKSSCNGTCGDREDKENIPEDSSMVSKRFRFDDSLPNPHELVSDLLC
- Test method notes: kinase competition binding assay
- Test settings: Table 1
Metric name: IC50 (nM)
Give the number; nM is assumed, so skip it.

In: Consider the compound COc1cc(-c2cc(=O)c3c(O)cc(O)c(CC=C(C)C)c3o2)ccc1O [FBL-03G, Caflanone] and give its measured IC50.
Out: 1400

* * *

- Target system: FLT3(ITD) (Homo sapiens, UniProt P36888)
- Construct: In general, full-length constructs were used for small, single domain kinases, and catalytic domain constructs for large multi-domain kinases; fused on or other part: T7 phage fusion or DNA tag for qPCR detection
- Sequence (P36888 1-993): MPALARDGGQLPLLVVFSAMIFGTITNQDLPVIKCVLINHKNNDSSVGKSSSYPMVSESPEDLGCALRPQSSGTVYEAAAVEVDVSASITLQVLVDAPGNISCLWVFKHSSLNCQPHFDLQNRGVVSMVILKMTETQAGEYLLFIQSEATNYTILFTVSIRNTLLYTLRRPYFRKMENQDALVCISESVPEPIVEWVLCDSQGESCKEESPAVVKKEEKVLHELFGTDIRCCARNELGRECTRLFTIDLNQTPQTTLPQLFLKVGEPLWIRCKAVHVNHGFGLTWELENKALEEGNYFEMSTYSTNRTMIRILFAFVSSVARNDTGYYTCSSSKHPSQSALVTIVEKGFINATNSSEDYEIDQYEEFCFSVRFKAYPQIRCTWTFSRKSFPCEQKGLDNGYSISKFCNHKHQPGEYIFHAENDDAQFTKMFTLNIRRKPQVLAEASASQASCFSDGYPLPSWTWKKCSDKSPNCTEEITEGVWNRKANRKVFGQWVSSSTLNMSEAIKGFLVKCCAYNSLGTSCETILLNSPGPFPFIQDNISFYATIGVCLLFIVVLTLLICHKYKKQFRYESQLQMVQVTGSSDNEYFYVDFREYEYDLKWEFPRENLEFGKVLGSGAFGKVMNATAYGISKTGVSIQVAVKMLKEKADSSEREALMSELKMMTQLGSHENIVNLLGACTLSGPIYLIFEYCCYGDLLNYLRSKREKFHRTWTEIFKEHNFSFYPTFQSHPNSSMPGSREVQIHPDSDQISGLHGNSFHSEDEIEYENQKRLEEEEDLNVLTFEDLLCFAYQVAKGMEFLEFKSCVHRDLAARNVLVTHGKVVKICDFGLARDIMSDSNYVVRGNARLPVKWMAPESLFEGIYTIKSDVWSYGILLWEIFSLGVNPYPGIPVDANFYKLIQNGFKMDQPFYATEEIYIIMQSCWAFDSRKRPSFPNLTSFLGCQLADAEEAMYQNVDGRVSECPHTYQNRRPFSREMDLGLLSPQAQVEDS
- Test settings: Table 1
Metric name: pIC50
Convention used: pIC50 is expressed as -log10 of the molar concentration.

In: Consider the molecule COc1cc(-c2cc(=O)c3c(O)cc(O)c(CC=C(C)C)c3o2)ccc1O [FBL-03G, Caflanone] and give its measured pIC50.
Out: 7.42

* * *

- Target system: JAK2 (Homo sapiens)
- Construct: full-length constructs were used for small, single domain kinases, and catalytic domain constructs for large multi-domain kinases; T7 phage fusion (most assays) or DNA tag for qPCR (HEK-293-made kinases)
- Sequence (O60674 whole entry, the tested form may be a part): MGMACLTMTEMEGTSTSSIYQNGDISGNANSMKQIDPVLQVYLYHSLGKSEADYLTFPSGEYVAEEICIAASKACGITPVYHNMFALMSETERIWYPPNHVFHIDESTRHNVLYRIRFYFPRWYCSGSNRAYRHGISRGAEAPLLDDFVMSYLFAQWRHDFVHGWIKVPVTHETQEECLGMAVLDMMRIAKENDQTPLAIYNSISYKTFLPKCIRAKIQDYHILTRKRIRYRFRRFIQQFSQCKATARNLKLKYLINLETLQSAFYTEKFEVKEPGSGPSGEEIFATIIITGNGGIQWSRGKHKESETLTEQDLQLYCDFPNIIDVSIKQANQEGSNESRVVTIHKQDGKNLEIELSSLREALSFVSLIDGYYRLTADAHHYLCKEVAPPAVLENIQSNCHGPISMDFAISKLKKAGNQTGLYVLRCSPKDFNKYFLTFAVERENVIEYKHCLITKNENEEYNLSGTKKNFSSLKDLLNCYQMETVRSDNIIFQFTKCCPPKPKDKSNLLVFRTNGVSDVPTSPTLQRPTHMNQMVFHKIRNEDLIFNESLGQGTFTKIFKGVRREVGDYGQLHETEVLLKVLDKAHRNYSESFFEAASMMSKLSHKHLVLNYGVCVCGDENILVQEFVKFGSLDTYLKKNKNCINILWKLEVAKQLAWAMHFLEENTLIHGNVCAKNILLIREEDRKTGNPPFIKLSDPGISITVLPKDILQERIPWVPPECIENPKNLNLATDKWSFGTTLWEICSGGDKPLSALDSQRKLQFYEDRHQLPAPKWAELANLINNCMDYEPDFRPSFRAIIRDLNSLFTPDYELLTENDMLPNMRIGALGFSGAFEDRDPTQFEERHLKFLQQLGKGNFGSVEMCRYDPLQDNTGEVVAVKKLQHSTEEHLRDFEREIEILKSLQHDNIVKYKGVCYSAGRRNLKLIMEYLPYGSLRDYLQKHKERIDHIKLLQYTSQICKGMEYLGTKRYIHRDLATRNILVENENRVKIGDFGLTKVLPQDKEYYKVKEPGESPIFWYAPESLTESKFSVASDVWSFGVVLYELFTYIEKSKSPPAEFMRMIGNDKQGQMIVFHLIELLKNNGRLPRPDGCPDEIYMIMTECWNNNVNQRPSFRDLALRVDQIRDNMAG
- Test method notes: kinase competition binding assay
- Test settings: Table 1
Metric name: pIC50
Convention used: pIC50 is expressed as -log10 of the molar concentration.

In: Consider the molecule COc1cc(-c2cc(=O)c3c(O)cc(O)c(CC=C(C)C)c3o2)ccc1O [FBL-03G, Caflanone] and give its measured pIC50.
Out: 5.73
